Overview of recorded selectivity ratio for various compounds
- Measurement Protocol: Selectivity index, ratio of IC50 for cytotoxicity against African green monkey Vero cells to IC50 for chloroquine-resistant Plasmodium falciparum W2
- Format: toxicity, cell-based
- Assay Context: read-out: Ratio IC50
Endpoint Name: selectivity ratio

# Structure, Assay Value
measured = [
    ("Cc1cc(N2CCOCC2)nc(N(CCCNc2ccnc3cc(Cl)ccc23)Cc2cccs2)n1", "> 17.2"),
    ("Cc1cc(N2CCOCC2)nc(N(CCCNc2ccnc3cc(Cl)ccc23)Cc2ccccn2)n1", "> 28.3"),
    ("Cc1cc(N(CCNc2ccnc3cc(Cl)ccc23)Cc2ccccn2)nc(N2CCCCC2)n1", "> 19.7"),
    ("Cc1cc(N(CCCNc2ccnc3cc(Cl)ccc23)Cc2cccs2)nc(N2CCN(C)CC2)n1", "> 23.5"),
    ("Cc1cc(N2CCCC2)nc(N(CCCNc2ccnc3cc(Cl)ccc23)Cc2cccs2)n1", "> 24"),
    ("Cc1cc(N2CCCCC2)nc(N(CCNc2ccnc3cc(Cl)ccc23)Cc2ccccn2)n1", "> 6.8"),
    ("Cc1cc(N(CCCNc2ccnc3cc(Cl)ccc23)Cc2cccs2)nc(Cl)n1", "> 17.1"),
    ("CCN1CCN(c2nc(C)cc(N(CCCNc3ccnc4cc(Cl)ccc34)Cc3ccccn3)n2)CC1", "> 66"),
    ("CCN1CCN(c2nc(C)cc(N(CCCNc3ccnc4cc(Cl)ccc34)Cc3cccs3)n2)CC1", "> 28.4"),
    ("Cc1cc(N(CCCNc2ccnc3cc(Cl)ccc23)Cc2ccccn2)nc(N2CCN(C)CC2)n1", "> 37.8"),
    ("Cc1cc(N2CCCCC2)nc(N(CCCNc2ccnc3cc(Cl)ccc23)Cc2cccs2)n1", 38.9),
    ("Cc1cc(Cl)nc(N(CCNc2ccnc3cc(Cl)ccc23)Cc2ccccn2)n1", 8.5),
    ("Clc1ccc2c(NCCCNCc3cccs3)ccnc2c1", "> 19.1"),
]

---

- Test system: Plasmodium falciparum
- Measurement Protocol: Antimalarial activity against chloroquine-sensitive Plasmodium falciparum D6 infected in RBC after 72 hrs by LDH release assay
- Type: functional, organism-based
- Assay Context: D6, 72 h
Please use criterion met for IC50 under 40 nM and criterion not met for everything else, ties included.

# Structure, Measured On, Label
data = [
    ("Cc1cc(N(CCCNc2ccnc3cc(Cl)ccc23)Cc2cccs2)nc(Cl)n1", "Plasmodium falciparum", "criterion not met"),
    ("Cc1cc(N(CCCNc2ccnc3cc(Cl)ccc23)Cc2ccccn2)nc(N2CCCCC2)n1", "Plasmodium falciparum", "criterion not met"),
    ("Clc1ccc2c(NCCCNCc3cccs3)ccnc2c1", "Plasmodium falciparum", "criterion not met"),
    ("Cc1cc(N2CCOCC2)nc(N(CCNc2ccnc3cc(Cl)ccc23)Cc2ccccn2)n1", "Plasmodium falciparum", "criterion not met"),
    ("Cc1cc(Cl)nc(N(CCCNc2ccnc3cc(Cl)ccc23)Cc2cccs2)n1", "Plasmodium falciparum", "criterion not met"),
    ("CCN1CCN(c2nc(C)cc(N(CCNc3ccnc4cc(Cl)ccc34)Cc3ccccn3)n2)CC1", "Plasmodium falciparum", "criterion met"),
    ("Cc1cc(N2CCCC2)nc(N(CCCNc2ccnc3cc(Cl)ccc23)Cc2cccs2)n1", "Plasmodium falciparum", "criterion met"),
    ("CCN1CCN(c2cc(C)nc(N(CCNc3ccnc4cc(Cl)ccc34)Cc3ccccn3)n2)CC1", "Plasmodium falciparum", "criterion met"),
    ("Cc1cc(N(CCCNc2ccnc3cc(Cl)ccc23)Cc2ccccn2)nc(N2CCN(C)CC2)n1", "Plasmodium falciparum", "criterion not met"),
    ("CCN1CCN(c2nc(C)cc(N(CCCNc3ccnc4cc(Cl)ccc34)Cc3cccs3)n2)CC1", "Plasmodium falciparum", "criterion met"),
    ("CCN1CCN(c2cc(C)nc(N(CCCNc3ccnc4cc(Cl)ccc34)Cc3cccs3)n2)CC1", "Plasmodium falciparum", "criterion met"),
    ("Cc1cc(N2CCCC2)nc(N(CCNc2ccnc3cc(Cl)ccc23)Cc2ccccn2)n1", "Plasmodium falciparum", "criterion not met"),
]
